# assay summary: recombinant UMI read abundance after kanamycin selection (control-corrected) (log10(CPM+1)); higher = more efficient recombination; extreme values may be limits of the assay; sequences stand for … in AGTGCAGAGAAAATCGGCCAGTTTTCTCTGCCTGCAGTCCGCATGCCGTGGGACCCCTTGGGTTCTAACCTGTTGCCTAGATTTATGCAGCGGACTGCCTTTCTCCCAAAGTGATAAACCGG…AGGTTGGTTTCACT; site = the 11-nt donor
measurement type: recombinant UMI read abundance (log10)

>  <polymer sequence>
CCAGGTACATGGACCGGTTTTCCCGGTAATCCGTATTTGAT (site CCAGGTACTAT)

>  <measurement type>
recombinant UMI read abundance (log10)

>  <result value>
0.643

$$$$
>  <polymer sequence>
AGGTAGCCATGGACCGGTTTTCCCGGTAATCCGTATTTGCA (site AGGTAGCCTTG)

>  <measurement type>
recombinant UMI read abundance (log10)

>  <result value>
0

$$$$
>  <polymer sequence>
CATGACTCATGGACCGGTTTTCCCGGTAATCCGTATTTGTT (site CATGACTCTAA)

>  <measurement type>
recombinant UMI read abundance (log10)

>  <result value>
2.08

$$$$
>  <polymer sequence>
GGCAGTCCATGGACCGGTTTTCCCGGTAATCCGTATTTGAA (site GGCATTCCTTT)

>  <measurement type>
recombinant UMI read abundance (log10)

>  <result value>
0

$$$$
>  <polymer sequence>
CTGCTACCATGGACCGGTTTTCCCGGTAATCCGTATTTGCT (site ATGCTACCTAG)

>  <measurement type>
recombinant UMI read abundance (log10)

>  <result value>
0.00358

$$$$

----------
recombinant barcode read abundance (log10) by entry:
# assay summary: recombinant barcode read abundance after kanamycin selection (control-corrected) (log10(CPM+1)); higher = more efficient recombination; sequences stand for … in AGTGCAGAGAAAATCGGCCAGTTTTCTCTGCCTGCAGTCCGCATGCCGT…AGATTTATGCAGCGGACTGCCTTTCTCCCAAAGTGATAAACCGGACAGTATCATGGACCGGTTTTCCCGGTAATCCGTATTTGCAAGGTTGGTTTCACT; site = the 11-nt target
measurement type: recombinant barcode read abundance (log10)

>  <polymer sequence>
ACTTCTTCTTGGGTTCTAACCTGTTGCCT (site ACTTCTACTCG)

>  <result value>
0.124

$$$$
>  <polymer sequence>
GACCGGGCTTGGGTTCTAACCTGTTGCCT (site GACCGGGCTAG)

>  <result value>
0.592

$$$$
>  <polymer sequence>
TCGTCCTCTTGGGTTCTAACCTGTTGCCT (site TCGTCATCTAG)

>  <result value>
0.225

$$$$
>  <polymer sequence>
GTTGAGTCTTGGGTTCTAACCTGTTGCGT (site CTTGAGCCTAC)

>  <result value>
0.0835

$$$$
>  <polymer sequence>
CGGGGAGCTTGGGTTCTAACCTGTTGCCG (site CGGGGAGCTCG)

>  <result value>
0.761

$$$$
>  <polymer sequence>
TGGCTGTCTTGGGTTCTAACCTGTTGCCT (site TGGTTGTCTAG)

>  <result value>
0.0561

$$$$
>  <polymer sequence>
CAGAGGTCTTGGGTTCTAACCTGTTGCCT (site CAGAGGTCTAG)

>  <result value>
1.39

$$$$
>  <polymer sequence>
ACCTGAACTTGGGTTCTAACCTGTTGCCT (site ACGTGAACTAG)

>  <result value>
0.0712

$$$$
>  <polymer sequence>
TGGACTTCTTGGGTTCTAACCTGTTGCTC (site TGGACTTCTGA)

>  <result value>
0.141

$$$$
>  <polymer sequence>
TATTCTCCTTGGGTTCTAACCTGTTGCGT (site TATTCTCCTAG)

>  <result value>
0.12

$$$$
>  <polymer sequence>
GAGTTCCCTTGGGTTCTAACCTGTTGCCC (site ATTACTTCTAA)

>  <result value>
0.0963

$$$$
>  <polymer sequence>
GCCAAACCTTGGGTTCTAACCTGTTGCTA (site GTCAAGCCTTA)

>  <result value>
0.176

$$$$

Origin of the recorded values: the supplement of paper PMC11208160
